# Target: human μ-calpain (Homo sapiens, UniProt P07384)
# Sequence (P07384 1-714): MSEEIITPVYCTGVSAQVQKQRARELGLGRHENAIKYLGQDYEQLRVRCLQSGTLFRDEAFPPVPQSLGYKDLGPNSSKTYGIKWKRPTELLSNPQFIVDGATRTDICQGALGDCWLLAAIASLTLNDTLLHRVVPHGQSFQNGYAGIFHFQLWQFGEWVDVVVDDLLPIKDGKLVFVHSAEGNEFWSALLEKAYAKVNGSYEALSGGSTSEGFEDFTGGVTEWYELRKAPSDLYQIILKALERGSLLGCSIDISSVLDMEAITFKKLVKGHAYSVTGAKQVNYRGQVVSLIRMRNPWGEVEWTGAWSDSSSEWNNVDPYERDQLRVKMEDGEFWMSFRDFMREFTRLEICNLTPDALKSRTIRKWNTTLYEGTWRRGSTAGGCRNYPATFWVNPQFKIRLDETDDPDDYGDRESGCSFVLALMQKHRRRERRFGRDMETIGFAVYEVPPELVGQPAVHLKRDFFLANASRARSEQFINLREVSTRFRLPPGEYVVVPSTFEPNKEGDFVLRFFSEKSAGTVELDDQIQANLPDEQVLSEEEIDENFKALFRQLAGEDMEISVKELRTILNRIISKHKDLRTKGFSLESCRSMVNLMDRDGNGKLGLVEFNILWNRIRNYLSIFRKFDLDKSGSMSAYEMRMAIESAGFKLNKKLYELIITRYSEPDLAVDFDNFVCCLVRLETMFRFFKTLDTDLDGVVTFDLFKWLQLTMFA
# Sequence (P04632 1-268 partner): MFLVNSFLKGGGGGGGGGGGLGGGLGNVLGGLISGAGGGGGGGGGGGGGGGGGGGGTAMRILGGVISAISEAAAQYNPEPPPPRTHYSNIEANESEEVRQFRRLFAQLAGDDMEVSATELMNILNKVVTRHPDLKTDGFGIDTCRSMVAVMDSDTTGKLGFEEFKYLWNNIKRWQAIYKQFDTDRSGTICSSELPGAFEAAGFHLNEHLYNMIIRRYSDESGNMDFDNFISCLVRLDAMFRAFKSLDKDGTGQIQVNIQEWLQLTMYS
Readout Kind: IC50 (nM)

CCNC(=O)C(=O)[C@H](Cc1ccc(F)c(F)c1)NC(=O)[C@@H](NC(=O)CCCCC1CCSS1)C(C)C (some centres unmarked)
100

P. CCNC(=O)C(=O)[C@H](Cc1ccc(Cl)cc1Cl)NC(=O)[C@H](CC(C)C)NC(=O)CCCCC1CCSS1 (some centres unmarked)
Q. CCNC(=O)C(=O)[C@H](Cc1ccc(Cl)cc1)NC(=O)[C@@H](NC(=O)CCCC1CCCS1)C(C)C (some centres unmarked)
R. CCNC(=O)C(=O)[C@H](Cc1ccc(C)cc1)NC(=O)[C@H](CC(C)C)NC(=O)CCCCC1CCS[S+]1[O-] (some centres unmarked)
S. CCNC(=O)C(=O)[C@H](Cc1ccc(C)cc1)NC(=O)[C@@H](NC(=O)CCCCC1CCS[S+]1[O-])C(C)C (some centres unmarked)
Please order the records by their reported IC50, lowest number first. Could you list the labels in the order requested? R, P, S, Q

* * *

# Test system: cellular calpains in C2C12 myoblasts
# Protocol Summary: Calpain inhibition assay in C2C12 myoblasts
# Format: cell-based
# Test Conditions: 2 h incubation, calcium ionophore Br-A-23187, read-out: Calp I IC50 Myoblast
pIC50: −log10 of the molar value.
Readout Kind: pIC50

CCNC(=O)C(=O)[C@H](Cc1ccc(C(F)(F)F)cc1)NC(=O)[C@@H](NC(=O)CCCCC1CCSS1)C(C)C (some centres unmarked)
5.96
CCNC(=O)C(=O)[C@H](Cc1ccc(Cl)c(Cl)c1)NC(=O)[C@@H](NC(=O)CCCCC1CCSS1)C(C)C (some centres unmarked)
5.00
CCNC(=O)C(=O)[C@H](Cc1ccc(OC)cc1)NC(=O)[C@@H](NC(=O)c1cccc(NC(=O)CCCCC2CCSS2)c1)C(C)C (some centres unmarked)
6.60
CCNC(=O)C(=O)[C@H](Cc1ccc(OC)cc1)NC(=O)[C@@H](NC(=O)CCCCC1CCSS1)C(C)C (some centres unmarked)
5.40
CCNC(=O)C(=O)[C@H](Cc1ccc(Br)cc1)NC(=O)[C@@H](NC(=O)CCCCC1CCS[S+]1[O-])C(C)CC (some centres unmarked)
5.05

1. CCNC(=O)C(=O)[C@H](Cc1ccc(Cl)c(Cl)c1)NC(=O)[C@H](CC(C)C)NC(=O)CCCCC1CCSS1 (some centres unmarked)
2. CCNC(=O)C(=O)[C@H](Cc1ccccc1)NC(=O)[C@H](CC(C)C)NC(=O)CNC(=O)CCCCC1CCS[S+]1[O-] (some centres unmarked)
Exercise: compare 1 and 2 ; which one has the greater pIC50? Choose, then provide that item's label. 1

P. Cc1ccc(S(=O)(=O)CNC(=O)C(=O)[C@H](Cc2ccc(Cl)cc2)NC(=O)[C@H](CC(C)C)NC(=O)CCCCC2CCS[S+]2[O-])cc1 (some centres unmarked)
Q. CCNC(=O)C(=O)[C@H](Cc1ccccc1)NC(=O)[C@H](CC(C)(C)C)NC(=O)CCCCC1CCSS1 (some centres unmarked)
R. CCNC(=O)C(=O)[C@H](Cc1ccc(C(F)(F)F)cc1)NC(=O)[C@H](CC(C)C)NC(=O)CCCCC1CCS[S+]1[O-] (some centres unmarked)
S. CCNC(=O)C(=O)[C@H](Cc1cccc(C(F)(F)F)c1)NC(=O)[C@H](CC(C)C)NC(=O)CCCCC1CCS[S+]1[O-] (some centres unmarked)
T. Cc1ccc(S(=O)(=O)CNC(=O)C(=O)[C@H](Cc2ccc(Cl)cc2)NC(=O)[C@@H](NC(=O)CCCCC2CCSS2)C(C)C)cc1 (some centres unmarked)
Please list these in order of increasing pIC50. Thank you! Use the labels to give the ranking in the order requested. Q, S, P, R, T
(Q: 5.00, S: 5.40, P: 5.70, R: 6.10, T: 6.30)

1. CCNC(=O)C(=O)[C@H](Cc1ccc(OC)cc1)NC(=O)[C@@H](NC(=O)c1ccccc1NC(=O)CCCCC1CCSS1)C(C)C (some centres unmarked)
2. CCNC(=O)C(=O)[C@H](Cc1ccc(Cl)cc1)NC(=O)[C@@H](NC(=O)CNC(=O)CCCCC1CCS[S+]1[O-])C(C)C (some centres unmarked)
Exercise: compare 1 and 2 ; which one has the greater pIC50? Please reply using the label of the selected record. 1
(1: 5.74, 2: 5.40)

* * *

# Test system: cellular calpains in C2C12 myoblasts
# Protocol Summary: Calpain inhibition assay in C2C12 myoblasts
# Assay type: cell-based
# Test Conditions: 2 h incubation, calcium ionophore Br-A-23187, read-out: Calp I IC50 Myoblast
pIC50: −log10 of the molar value.
Readout Kind: pIC50

Some compounds with recorded pIC50:
CCNC(=O)C(=O)[C@H](Cc1ccc(I)cc1)NC(=O)[C@H](CC(C)C)NC(=O)CCCCC1CCS[S+]1[O-] (some centres unmarked) [Example 79]
6.30
CCNC(=O)C(=O)[C@H](Cc1ccc(F)cc1)NC(=O)[C@@H](NC(=O)CCCCC1CCS[S+]1[O-])C(C)C (some centres unmarked) [Example 38]
5.15
CCNC(=O)C(=O)[C@H](Cc1ccc(F)cc1)NC(=O)[C@H](CC(C)C)NC(=O)CCCCC1CCSS1 (some centres unmarked) [Example 39]
5.52
CCNC(=O)C(=O)[C@H](Cc1ccc(O)cc1)NC(=O)[C@H](CC(C)C)NC(=O)CCCCC1CCSS1 (some centres unmarked) [Example 82]
5.00
CCNC(=O)C(=O)[C@H](Cc1ccc(Cl)cc1)NC(=O)[C@@H](NC(=O)CCNC(=O)CCCCC1CCSS1)C(C)C (some centres unmarked) [Example 172]
4.52

1. CCNC(=O)C(=O)[C@H](Cc1ccccc1)NC(=O)[C@@H](NC(=O)CNC(=O)CCCCC1CCSS1)C(C)C (some centres unmarked) [Example 207]
2. CCNC(=O)C(=O)[C@H](Cc1ccc(Cl)cc1)NC(=O)[C@@H](NC(=O)CCCCC1CCCS1)C(C)C (some centres unmarked) [Example 3]
Lab note: check whether 1 or 2 has the lower measured pIC50. Please indicate the selected item by its label. 1

I. CCNC(=O)C(=O)[C@H](Cc1ccc(Cl)cc1Cl)NC(=O)[C@H](CC(C)C)NC(=O)CCCCC1CCS[S+]1[O-] (some centres unmarked) [Example 36]
II. CCNC(=O)C(=O)[C@H](Cc1ccc(C(C)(C)C)cc1)NC(=O)[C@H](CC(C)C)NC(=O)CCCCC1CCSS1 (some centres unmarked) [Example 120]
Compare I and II by numeric pIC50 and name the larger one. Your answer should be the label of the entry you select. II

* * *

# Test system: cellular calpains in C2C12 myoblasts
# Protocol Summary: Calpain inhibition assay in C2C12 myoblasts
# Type: cell-based
# Test Conditions: 2 h incubation, calcium ionophore Br-A-23187, read-out: Calp I IC50 Myoblast
Readout Kind: IC50 (µM)

CCNC(=O)C(=O)[C@H](Cc1ccc(Cl)cc1)NC(=O)[C@@H](NC(=O)CCCCC1CCSS1)C(C)C (stereo partly shown)
0.35
CCNC(=O)C(=O)[C@H](Cc1ccccc1)NC(=O)[C@H](CC(C)(C)C)NC(=O)CCCCC1CCS[S+]1[O-] (stereo partly shown)
5
CCNC(=O)C(=O)[C@H](Cc1ccc(C)cc1)NC(=O)[C@H](CC(C)C)NC(=O)CCCCC1CCSS1 (stereo partly shown)
0.5
CCNC(=O)C(=O)[C@H](Cc1ccc(Br)cc1)NC(=O)[C@@H](NC(=O)CCCCC1CCSS1)C(C)CC (stereo partly shown)
9

A. CCNC(=O)C(=O)[C@H](Cc1ccc(F)c(F)c1)NC(=O)[C@@H](NC(=O)CCCCC1CCSS1)C(C)C (stereo partly shown)
B. CCNC(=O)C(=O)[C@H](Cc1ccc(Cl)cc1)NC(=O)[C@H](CC(C)(C)C)NC(=O)CCCCC1CCSS1 (stereo partly shown)
C. CCNC(=O)C(=O)[C@H](Cc1ccc(C#N)cc1)NC(=O)[C@H](CC(C)C)NC(=O)CCCCC1CCSS1 (stereo partly shown)
Reorder: IC50, max to min. In plain terms: list the labels in the order you were asked to. B, C, A
(B: 3.5 µM, C: 1.7 µM, A: 0.7 µM)
